assay: Plasma pharmacokinetics by HPLC-MS/MS; assay type: in vivo, human; conditions: human, plasma, oral, Cycle 1, Day 21; Cohort 13: binimetinib 30mg B.D 21d, crizotinib 250mg O.D, n = 6; read-out: Cmin 24h
recorded.metric: concentration at 24 h

smiles_data=C[C@@H](Oc1cc(-c2cnn(C3CCNCC3)c2)cnc1N)c1c(Cl)ccc(F)c1Cl result="72.6 ng/mL"
